Tested on: NCI-H226
assay_explanation: NCI tumour cell line growth inhibition, 48 h
The source made the active and inactive calls. No stated cut-off is given here; in the data, active = GI50 up to about 1.1 µM and inactive = higher.
Listed molecules paired with reported GI50

molecule | target_system | GI50
N#CC(C/C=C/c1ccccc1)NNC(=O)c1c(Cl)c(Cl)c(Cl)c(Cl)c1-c1nc2cc(C(=O)c3ccccc3)ccc2[nH]1 (stereo not given) | NCI-H226 | 17.7 µM (inactive)
COc1ccc2nc(NC(=O)C(=O)CC(=O)c3ccc([N+](=O)[O-])cc3)sc2c1 | NCI-H226 | > 100 µM (inactive)
COc1cc2cc(C(=O)N3CC(CCl)c4ccc(NO)cc43)[nH]c2c(OC)c1OC (stereo not given) | NCI-H226 | 0.244 µM (active)
COC(=O)C1=C(O)C(C(=O)OC)[C@]2(O)[C@H](C(=O)OC)[C@H]1C[C@@H](c1ccc(OC)c(OC)c1)[C@H]2C(=O)OC (stereo not given in full) | NCI-H226 | 4.79 µM (inactive)

# input Would you mind telling me what GI50 value was observed for Cn1c(=O)c(C#N)c(O)c2cc3ccccc3nc21 ?
# output > 100 µM (inactive)

# input Also, CCOC(=O)/C=C/CC(C)(C)CCOC(C)=O please.
# output > 10 µM (inactive)

# input And for CCOP(=O)(OCC)/C(=C/NC(=S)c1ccncc1)C(=O)OC ?
# output > 100 µM (inactive)

# input Now the molecule O=c1nc(NC2CCCCO2)ccn1CCO (stereo not given)
# output > 100 µM (inactive)

# input Another molecule: O=C(N/C(=C\c1ccc(Cl)cc1)c1nc2ccccc2[nH]1)c1ccccc1
# output 22.2 µM (inactive)

# input # iterate: COc1ccccc1/C=C1\CCC(CCN(C)C)(C2=CCCC2)C1=O (stereo not given)
# output 19.5 µM (inactive)
